B1: OAS1 (parent)
chain: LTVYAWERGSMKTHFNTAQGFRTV

- Variants of: B1
- Protocol summary: protein stability index of a GFP-peptide fusion (GPS, HEK-293T) (PSI 1-6); higher = more stable;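 note: lentivirally expressed fusions sorted by FACS into six bins by GFP to DsRed ratio, PSI derived from sequencing read proportions per bin multiplied by bin number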
- Test conditions: c terminus: a fixed tail appended
Parameter: protein stability index. Scope: all listed entries.

{"Mutation id": "T2R", "protein stability index": 2.04}
{"Mutation id": "T17P", "protein stability index": 2.2}
{"Mutation id": "T17E", "protein stability index": 1.61}
{"Mutation id": "T2C", "protein stability index": 1.6}
{"Mutation id": "A18H", "protein stability index": 3.09}
{"Mutation id": "T13A", "protein stability index": 2.88}
{"Mutation id": "A5R", "protein stability index": 2.9}
{"Mutation id": "M11P", "protein stability index": 1.85}
